Ref: ChEMBL document CHEMBL4616704

PROTOCOL SUMMARY: MRT in Beagle dog at 1 mg/kg administered as iv infusion for 30 mins and measured after 24 hrs by ESI-LC/MS/MS analysis
Assay type: ADME, organism-based, Canis lupus familiaris
CONDITION DESCRIPTION: in vivo
MEASURE NAME: MRT (h)
The reply should contain only the number, in h.

Read off the recorded MRT for `Cc1nc2c(-c3nnc[nH]3)cc(-c3ccnc(C#N)c3)cc2n1-c1ccnc2c(F)ccc(F)c12` 7.3

---

PROTOCOL SUMMARY: Oral bioavailability in Beagle dog at 5 mg/kg dosed via gavage after 24 hrs by ESI-LC/MS/MS analysis
Assay type: ADME, organism-based, Canis lupus familiaris
CONDITION DESCRIPTION: in vivo
MEASURE NAME: bioavailability (%)
The reply should contain only the number, in %.

Read off the recorded bioavailability for `Cc1nc2c(-c3nnc[nH]3)cc(-c3ccnc(C#N)c3)cc2n1-c1ccnc2c(F)ccc(F)c12` 76
